Reported apparent KD of MS2 coat protein values for a set of sequences
Test system: MS2 coat protein
assay method text: apparent KD of MS2 coat protein; designed switch direction (-1 OFF switch, 1 ON switch): -1; higher = weaker reporter binding
conditions used: input ligand: microRNA oligo, concentration not stated
Field: numeric (nM). Do not append units.

# annotated cases, reported apparent KD of MS2 coat protein shown
input_sequence="AAUGAUUGACGAGGAUAUUGUGGUAAAACACGACGAGAAGGCGUCUGUCACAUGAGGAUCACCCAUGUGAGCUUUGUGGAUAGA [Ex NG1 #72] (Eterna round: R96, puzzle: Exclusion NG 1)" reported=33.6
input_sequence="UUUUAAUAUGAAGGAUAUACUUAACAUGAGGAUCACCCAUGUGGUGUUGUGAGUGAGUGAGUUUAGUAGAAGGUCAAUUAUUUU [JMF's solution 25] (Eterna round: R96, puzzle: Exclusion NG 2)" reported=249
input_sequence="ACGCAUUGCCAAAGGUAGUGCGUAACAUGAGGAUCACCCAUGUAGGAUAUGGUAGGCUUUGCUUACCAGAAGGACAUAAUAAUU [Mat - Exclusion NG 3 - Mod of JL - D4] (Eterna round: R96, puzzle: Exclusion NG 3)" reported=22.7

Next:
Please give the measured apparent KD of MS2 coat protein for this sequence: UAUAUAUAGUAAGGAUAUGUAUUAUUUUUAUAAACAGAAGGUACUGACAUGAGGAUCACCCAUGUUUUAGUGUGGGCAUGUAGA [JMF's solution 73] (Eterna round: R96, puzzle: Exclusion NG 1) 36.9

---

System: MS2 coat protein
assay method text: apparent KD of MS2 coat protein; designed switch direction (-1 OFF switch, 1 ON switch): -1; higher = weaker reporter binding
conditions used: Eterna round: R95; input ligand: FMN 200 uM
assay readout: apparent KD of MS2 coat protein (nM)
Please respond with the number in nM and leave the unit unwritten.

Any idea what apparent KD of MS2 coat protein came out for AGAAAGGAAGGAUAUACAAGAAAGCUGGGCAACGUCUCAUAACAUGAGGAUCACCCAUGUAGAAGGUCCAGGAA [Tiusredi] (puzzle: Exclusion 2) on MS2 coat protein? 35.7

Do the same for CGGUACUGAGGAUAUACAUGAGGAUCACCCAUGUGUUCCAGCUAGCGUACUGGCAUUAGUAGAAGGCGGUGCUG [JL-ex3-3.17 Brourd mod] (puzzle: Exclusion 3) please 31.4

Same thing, different sequence: GACCGGACGUGGUCAGGUAACAUGAGGAUCACCCAUGUAGGUCUAGGAACAAGCUUUUUGAAAGCUCGUCUUAUAAA [JR_SV3TOV1_Sub058] (puzzle: Sensor v3, turn-off variant 1) 56.7

Param item: AGUCUGCGAGGAUAUACAUGAGGAUCACCCAUGUGCGAGAUACUAGUGAGGUCGAUUGGUAGAAGGCGCGGACG [Mat - Exclusion 3 - Mod of JL D85] (puzzle: Exclusion 3) 86.4

Would you kindly repeat that for AGAAAUGCCCAUGGCCGCAAGCUCUUUGCUUGUCUUACCACAUGAGGAUCACCCAUGUGACAUGGGCUCCUUAUAAU [Riquarge] (puzzle: Sensor v3, turn-off variant 2) ? 13.9

Another sequence to look at: CGUGACUCAGGAUAUCUAUGAUAUCACAUGAGGAUCACCCAUGUCCAGCAAUAGCUGGAGGGAGAAGGGAGUCACG [Fiskers Ex 5 - 41] (puzzle: Exclusion 5) 84

Please answer likewise for GGUUGGCGAGGAUAUACAUGAGGAUCACCCAUGUGAGAAAAAAAAGUGAGGAAGAAAAGUAGAAGGCGCUGACG [salish99_ex3_r3_015] (puzzle: Exclusion 3) 67.7

Next record, please: UAGCUUCCGGUCAGGAUAUACGCUGGCGAAUAGCAGUAGAAGGGACAUGAGGAUCACCCAUGUGGGUUCAAAGA [Zabetima] (puzzle: Brourd's mod of Exclusion 4) 91

Please do the same for AAGAAACGAGGAUAUACAAUUGAGUGAGAGAGGGAAGUGUGACAUGAGGAUCACCCAUGUAGAAGGCGUGAGAG [JR_Exclu2_Sub086] (puzzle: Exclusion 2) as well. 116

Then UCAUACGAUGAGGAUAUCUCAGUUAAAGUAUUUAGAGAAGGCGUUACAUGAGGAUCACCCAUGUUUGUGGGCAG [Ex-6 Malc#8] (puzzle: Exclusion 6) ? 99.1

What do we get for AAAGAAGAAGUCAGGAUAUAGUUAAAGAAGACCGACUAGAAGGGACAUGAGGAUCACCCAUGUGUCAGUGGGUA [Lasoaned] (puzzle: Brourd's mod of Exclusion 4) ? 279

Source: the supplement of paper PMC9170038
